The values you see were collected from the supplement of paper PMC10126150.

Test system: ATP;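 note: ATP exposure 15 min at 22 °C before imaging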
Assay: switch fluorescence ratio, 500 uM ATP over buffer (Cy3 cluster intensity, sum of 5 cycles each) (fold (ratio)); higher = stronger signal-on switching upon ATP binding; sequences stand for … in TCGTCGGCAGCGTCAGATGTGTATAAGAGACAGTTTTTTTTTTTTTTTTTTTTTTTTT…TC
Conditions: aptamer strand: ATP DNA aptamer (quencher-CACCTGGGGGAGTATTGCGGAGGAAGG + anchor), 100 nM annealed; ATP concentration: 500 uM

query.sequence	system.name	switch fluorescence ratio
GGGGCGGTTT	ATP	1.01
GGAAAATTTT	ATP	0.994
AGGTAGGCGC	ATP	0.98
TTCGGTATAG	ATP	1

----------
Test system: ATP;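 note: ATP exposure 15 min at 22 °C before imaging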
Assay: switch fluorescence ratio, 500 uM ATP over buffer (Cy3 cluster intensity, sum of 5 cycles each) (fold (ratio)); higher = stronger signal-on switching upon ATP binding; sequences stand for … in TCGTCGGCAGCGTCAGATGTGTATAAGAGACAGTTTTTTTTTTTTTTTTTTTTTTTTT…TC
Conditions: aptamer strand: ATP DNA aptamer (quencher-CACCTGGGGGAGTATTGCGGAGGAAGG + anchor), 100 nM annealed; ATP concentration: 500 uM
Could you label it y if measured switch fluorescence ratio is 1 or higher, and n otherwise?

query.sequence	qualitative.label
CGGGGTGGTG	y
TTTTATCAA	y
GAAAGGGGGC	n
CCGTGTTGCT	y
GGGCCCTTAC	y
TTAGAGACGC	y
TACGTAGGTG	y
TTTGGCCAAA	y
GGATGTAAGT	n
GGGGCAGGTA	y
TGGCCTGGGA	y
GATAGGAAGG	n
TTTAGTACCT	y

----------
Listing: switch fluorescence ratio of selected sequences
System: ATP;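 note: ATP exposure 15 min at 22 °C before imaging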
Experiment: switch fluorescence ratio, 500 uM ATP over buffer (Cy3 cluster intensity, sum of 5 cycles each) (fold (ratio)); higher = stronger signal-on switching upon ATP binding; sequences stand for … in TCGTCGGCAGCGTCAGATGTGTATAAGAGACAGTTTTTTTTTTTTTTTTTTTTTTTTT…TC
Conditions: aptamer strand: ATP DNA aptamer (quencher-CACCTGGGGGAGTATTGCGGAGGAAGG + anchor), 100 nM annealed; ATP concentration: 500 uM

query.sequence	switch fluorescence ratio
AGAGGAATTT	1.01
CGGAAGCATG	1.13
CATGGGGTGC	1.04
TTAAGCCTGG	0.962
GCATGAGCGG	1.01

----------
Listing: switch fluorescence ratio of selected sequences
Tested on: ATP;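 note: ATP exposure 15 min at 22 °C before imaging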
Test: switch fluorescence ratio, 500 uM ATP over buffer (Cy3 cluster intensity, sum of 5 cycles each) (fold (ratio)); higher = stronger signal-on switching upon ATP binding; sequences stand for … in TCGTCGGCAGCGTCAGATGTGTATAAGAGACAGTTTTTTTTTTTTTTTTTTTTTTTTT…TC
Conditions: aptamer strand: ATP DNA aptamer (quencher-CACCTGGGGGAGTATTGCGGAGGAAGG + anchor), 100 nM annealed; ATP concentration: 500 uM
endpoint.label: switch fluorescence ratio

query.sequence	experimental.result
CGTATATTAG	0.96
GGATGGAGGC	0.987
ACGCGGTCCA	0.988
TCAGACAGAT	1.02
TGTCAAAGAT	0.977
GGGTTAAAAC	1.01
CGATGATCGG	1
TCTGTTGTG	1.03
CGGTTGGGTC	1.05
